Item-by-item account of pKd
- Measurement Target: T1, LNX2_2, Q8N448
- T1 sequence (Q8N448 334-432, limits assumed, looked up): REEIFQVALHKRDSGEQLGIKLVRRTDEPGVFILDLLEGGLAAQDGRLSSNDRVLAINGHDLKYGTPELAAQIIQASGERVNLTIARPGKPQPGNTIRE
- Assay Text: holdup assay
- Set-up: key: below the threshold = too weak to quantify, mostly under pKd 3.1 to 4
- Stated Conditions: plain residues with an end cap or a label only (N-terminal biotin on a linker: ado-ado)
Number only, no unit.

REEPDHSTEV [CCRL2, O00421] : 4.09
ELSATVTTDC [TRIP6, Q15654] : 3.76
VLYPREGTEV [FOXI1, Q12951] : 4.22

So for NVYGIESVKI [GRIA2, P42262] , the logged pKd turned out to be 3.85

So for NIAESLESLV [PTPRZ1, P23471] , the logged pKd turned out to be 4.05
